assay: NCI Yeast Anticancer Drug Screen. Data for the mec2-1 strain (AID 157); settings: S. cerevisiae mec2-1 strain, at 50.0 µM, hits give high values
This is part of a sample that, as a whole, favours compounds with a hit. Of some 79,000 tested, about 15% had one in any assay.
measured-endpoint: growth inhibition (%)
Write the number in % without appending the unit.

Example entries begin here.
molecule	scale-unit	growth inhibition
O=C(N/N=C/c1ccccc1[O-])c1ccccc1O.O=C(N/N=C/c1ccccc1[O-])c1ccccc1O.[Mn+2]	%	99.8
Clc1ccc(/C=N/Nc2c3ccccc3nc3ccccc23)c(Cl)c1	%	46
Cc1cnc(C#N)c(C#N)n1	%	5.9

Continue with the molecule presented below.
Problem: // query growth inhibition value for entry `CN(C)c1nc(N(C)C)sc(=O)n1`
Solution: 25.8

---

assay: NCI Yeast Anticancer Drug Screen. Data for the mlh1 rad18 strain (AID 175); details: S. cerevisiae mlh1 rad18 strain growth inhibition; at 5.0 µM (retest, dose inferred, filed as 0.5); hits give high values
About 79,000 compounds went through this panel and 15% of them were active in at least one assay; those are over-represented in the sample as a whole.
Listing of recorded growth inhibition by entry.
Write the number in % without appending the unit.

molecule	growth inhibition, %
CCCCCCCCCc1cc(=O)[nH]c(=S)[nH]1	20

Problem: // query growth inhibition value for entry CCOC(=O)Nc1ccc(SCC2COC(Cn3ccnc3)(c3ccc(Cl)cc3Cl)O2)cc1 (centres undefined)
Solution: 61

Problem: // query growth inhibition value for entry `O=C(C(=O)n1ncc(Cl)c(Cl)c1=O)n1ncc(Cl)c(Cl)c1=O`
Solution: 0

Problem: // query growth inhibition value for entry COc1ccccc1C1c2cc3c(cc2OC(N2CCOCC2)C1C)OCO3 (centres undefined)
Solution: 9

Problem: // query growth inhibition value for entry `Cc1cc2c(C(C)C)c(O)c(O)c3coc(/c1=c1/c(C)cc4c(C(C)C)c(=O)c(=O)c5coc1c45)c32`
Solution: 29

Problem: // query growth inhibition value for entry `COc1cccc(OC)c1C(=O)/C=C/c1ccccc1`
Solution: 1

Problem: // query growth inhibition value for entry `O=C(O)c1ccccc1-c1ccccc1C(=O)Nc1ccc2c(c1)Cc1cc(F)ccc1-2`
Solution: -2

Problem: // query growth inhibition value for entry [Cl][Sn]([O][Sn]([Cl])([c]1ccccc1)[CH]1CCCCC1)([c]1ccccc1)[CH]1CCCCC1 (centres undefined)
Solution: 5

Problem: // query growth inhibition value for entry `CCOC(=O)C(=Cn1c(=S)[nH]c2ccc([N+](=O)[O-])cc21)C(=O)OCC`
Solution: 33

---

assay: NCI Yeast Anticancer Drug Screen. Data for the bub3 strain (AID 167); details: S. cerevisiae bub3 mutant strain, at 5.0 µM (retest, dose inferred, filed as 0.5), hits give high values
The panel holds about 79,000 compounds, 15% with a hit somewhere; the sample as a whole holds those more often.
Listing of recorded growth inhibition by entry.
Write the number in % without appending the unit.

Example entries begin here.
compound	scale-unit	growth inhibition
Cc1ccc(Nc2nc(C)c(C(=O)C/C(=N\NC(N)=S)C(=O)Nc3ccc(Cl)cc3C)s2)cc1	%	-19
C/C(=N/NC(=S)Nc1cccc(Cl)c1)c1ccccn1	%	82
CC(=O)Oc1ccc2ccccc2c1CN(Cc1c(OC(C)=O)ccc2ccccc12)C(C)=O	%	3
CCOC(=O)/C(=C\c1ccc(C)cc1)C(C)=O	%	33
CC1(Cc2ccccc2)CCCC(C=O)C1=O.[Cu+2] (stereo unspecified)	%	-3

Continue with the compound presented below.
Problem: // query growth inhibition value for entry CCc1cccc(CC)c1NC(=O)C(C#N)C1=C(Cl)C(=O)c2ccccc2C1=O (stereo unspecified)
Solution: 67
